System: SF-268 CNS
protocol: NCI tumour cell line growth inhibition, 48 h; in the data active = GI50 below about 0.43 µM; inactive = the rest
Your answer must be one of the following: class 1 (active), class 0 (inactive)

Answered examples (4):
CN1CCN(Cc2ccc(NC(=O)c3cnc(F)c(C#Cc4cnc(N)c5ncccc45)c3)cc2C(F)(F)F)CC1: class 1
CNCCCNc1c2cc(OC)ccc2nc2cccc([N+](=O)[O-])c12: class 1
CCN(CC)CCCN1C(=O)c2c(c(C)c3c(oc4ccc(O)cc43)c2C)C1=O: class 0
O=c1ccc(N=Nc2ccccc2)ccc1Cl: class 0

# ---- query compound ----
**Q:** Returns: the outcome recorded for C=C1C(=O)O[C@H]2[C@H]1CC/C(COC(=O)NCc1[nH]nc3ccccc13)=C\CC[C@@]1(C)O[C@@H]21 in this assay.
**A:** class 0
